measuredOn: ErbB2 with Exon 20 YVMA insertion (HER2-YVMA) (Homo sapiens (Human), UniProt P04626, INS775YVMA)
Sequence (P04626 other isoform, or with tags, fused parts or gaps ins YVMA behind 775): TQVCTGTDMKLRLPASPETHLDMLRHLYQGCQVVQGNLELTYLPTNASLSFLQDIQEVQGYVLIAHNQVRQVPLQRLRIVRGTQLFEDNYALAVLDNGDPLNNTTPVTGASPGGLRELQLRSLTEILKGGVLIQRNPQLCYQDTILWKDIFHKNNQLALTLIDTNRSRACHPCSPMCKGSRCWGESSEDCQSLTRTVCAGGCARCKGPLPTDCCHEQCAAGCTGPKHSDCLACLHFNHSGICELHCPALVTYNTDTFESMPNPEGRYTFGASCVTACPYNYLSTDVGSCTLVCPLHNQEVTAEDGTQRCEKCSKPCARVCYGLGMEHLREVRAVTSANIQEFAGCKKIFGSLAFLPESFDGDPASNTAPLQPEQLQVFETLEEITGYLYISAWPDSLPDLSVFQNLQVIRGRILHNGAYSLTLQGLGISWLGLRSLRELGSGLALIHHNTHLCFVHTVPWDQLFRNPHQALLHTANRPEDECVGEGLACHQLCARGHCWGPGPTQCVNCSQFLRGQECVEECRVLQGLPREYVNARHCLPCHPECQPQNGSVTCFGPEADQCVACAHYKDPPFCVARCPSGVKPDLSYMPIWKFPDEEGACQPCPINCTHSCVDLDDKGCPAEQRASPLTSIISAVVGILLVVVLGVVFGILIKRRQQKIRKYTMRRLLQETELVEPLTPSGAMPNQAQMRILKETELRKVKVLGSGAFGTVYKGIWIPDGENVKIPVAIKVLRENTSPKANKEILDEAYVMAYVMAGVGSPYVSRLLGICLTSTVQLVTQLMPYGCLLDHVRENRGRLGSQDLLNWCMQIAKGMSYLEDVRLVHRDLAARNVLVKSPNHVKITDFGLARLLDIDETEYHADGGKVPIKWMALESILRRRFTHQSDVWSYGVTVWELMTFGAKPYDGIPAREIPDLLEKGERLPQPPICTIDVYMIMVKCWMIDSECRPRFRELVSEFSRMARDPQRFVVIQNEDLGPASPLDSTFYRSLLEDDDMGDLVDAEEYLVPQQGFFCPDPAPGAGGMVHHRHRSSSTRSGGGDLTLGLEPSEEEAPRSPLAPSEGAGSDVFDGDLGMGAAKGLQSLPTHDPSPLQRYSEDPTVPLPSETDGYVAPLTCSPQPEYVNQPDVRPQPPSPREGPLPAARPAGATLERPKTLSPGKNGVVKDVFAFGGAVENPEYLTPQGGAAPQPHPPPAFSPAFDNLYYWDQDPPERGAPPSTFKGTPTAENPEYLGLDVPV
protocolSummary: Cellular Phosphorylation Assay, Assay 4 (constitutive ErbB2 phosphorylation, NIH 3T3 cells)
Assay type: cell-based
reportedConditions: ErbB2 YVMA phosphorylation
Field: pIC50. Provide a value for each of the compounds that follow.
Answers are plain numbers, as −log10 of the molar value.

These solved cases illustrate the format of a correct answer.
C=CC(=O)N1C[C@H]2CC[C@@H]1C[C@@H]2c1ccc2ncnc(Nc3ccc(Oc4ccn5ncnc5c4)c(C)c3F)c2n1 (single isomer, unassigned) [Example 234]; 7.48
C=CC(=O)N1CCCN(c2nc3c(Nc4ccc(Oc5ccn6ncnc6c5)c(Cl)c4F)ncnc3cc2OC)CC1; 7.42
C=CC(=O)N1CCC(c2ccc3ncnc(Nc4ccc(Oc5ccc6c(c5)ncn6C)c(C)c4F)c3n2)CC12CC2 (centres unmarked); 7.56
CC#CC(=O)N1CCN(c2ccc3ncnc(Nc4ccc(Oc5ccn6ncnc6c5)c(C)c4F)c3n2)CC12CC2; 7.12
C=C(F)C(=O)N1CCN(c2ccc3ncnc(Nc4ccc(Oc5ccn6ncnc6c5)c(C)c4F)c3n2)CC1(C)C; 6.56
C=CC(=O)N1CCC(Oc2ccc3ncnc(Nc4ccc(Oc5ccc6cn(C)nc6c5)c(C)c4F)c3n2)CC1; 7.27
C=CC(=O)N1CCC(c2ccc3ncnc(Nc4ccc(Oc5ccc6c(c5)ncn6C)c(C)c4)c3n2)C1 (racemic); 8.08

Exercise: Bench note: what pIC50 did C=CC(=O)N1C[C@H]2CC[C@@H](C1)[C@@H]2c1ccc2ncnc(Nc3ccc(Oc4ccn5ncnc5c4)c(C)c3)c2n1 show?
Key: 7.11

Source of measurements: patent US12447153B2
